# System: Human immunodeficiency virus 1
# Experiment Summary: Antiviral activity against HIV-1 RES056 mutant infected in human MT4 cells assessed as protection against virus induced cytopathic effect and measured after 5 days by MTT spectrophotometric assay
# Format: functional, organism-based
# Condition Details: Human immunodeficiency virus 1, MT4, 120 h
pEC50: −log10 of the molar value.
// values below are reported pEC50

{"Smiles Representation": "CS(=O)(=O)Nc1ccc2[nH]c(C(=O)N3CCC(Nc4nccc(Oc5ccc(Cl)cc5)n4)CC3)cc2c1", "pEC50": "< 4.82"}
{"Smiles Representation": "Cc1cc(C#N)cc(C)c1Oc1ccnc(NC2CCN(C(=O)c3cc4cc(NS(C)(=O)=O)ccc4[nH]3)CC2)n1", "pEC50": "< 4.60"}
{"Smiles Representation": "Cc1cn([C@H]2C[C@H](N=[N+]=[N-])[C@@H](CO)O2)c(=O)[nH]c1=O", "pEC50": 7.46}
{"Smiles Representation": "Cc1cc(C)c(Oc2ccnc(NC3CCN(C(=O)c4cc5cc(NS(C)(=O)=O)ccc5[nH]4)CC3)n2)c(C)c1", "pEC50": "< 4.72"}
{"Smiles Representation": "Cc1ccccc1Oc1ccnc(NC2CCN(C(=O)c3cc4cc(NS(C)(=O)=O)ccc4[nH]3)CC2)n1", "pEC50": "< 4.89"}
{"Smiles Representation": "CS(=O)(=O)Nc1ccc2[nH]c(C(=O)N3CCC(Nc4nccc(Oc5ccc(Br)cc5F)n4)CC3)cc2c1", "pEC50": "< 4.10"}
{"Smiles Representation": "CS(=O)(=O)Nc1ccc2[nH]c(C(=O)N3CCC(Nc4nccc(Oc5cccc(C(F)(F)F)c5)n4)CC3)cc2c1", "pEC50": "< 4.80"}
{"Smiles Representation": "Cc1cc(C#N)cc(C)c1Oc1nc(Nc2ccc(C#N)cc2)nc(N)c1Br", "pEC50": 7.00}
